Where do the numbers come from? From BigSolDB 2.1.

# measurement-parameters: in n-butyl acetate, 283.15 K
readout-name: solubility (mole fraction)

{"structure-smiles": "COc1cc2c(cc1OC)C(=O)CC2", "value-observed": 0.025}

====

# measurement-parameters: in methanol, 308.15 K
readout-name: solubility (mole fraction)

{"structure-smiles": "COc1cc2c(cc1OC)C(=O)CC2", "readout-name": "solubility (mole fraction)", "value-observed": 0.0418}

====

# measurement-parameters: in n-propanol, 288.15 K

{"structure-smiles": "COc1cc2c(cc1OC)C(=O)CC2", "solubility (mole fraction)": 0.0119}

====

# measurement-parameters: in isobutanol, 318.15 K

{"structure-smiles": "COc1cc2c(cc1OC)C(=O)CC2", "solubility (mole fraction)": 0.0806}

====

# measurement-parameters: in acetone, 318.15 K

{"structure-smiles": "COc1cc2c(cc1OC)C(=O)CC2", "solubility (mole fraction)": 0.173}

====

# measurement-parameters: in 2-butanone, 293.15 K

{"structure-smiles": "COc1cc2c(cc1OC)C(=O)CC2", "solubility (mole fraction)": 0.0746}

====

# measurement-parameters: in acetone, 283.15 K

{"structure-smiles": "COc1cc2c(cc1OC)C(=O)CC2", "solubility (mole fraction)": 0.0486}

====

# measurement-parameters: in n-butanol, 298.15 K
readout-name: solubility (mole fraction)

{"structure-smiles": "COc1cc2c(cc1OC)C(=O)CC2", "value-observed": 0.0268}

====

# measurement-parameters: in isopropanol, 308.15 K

{"structure-smiles": "COc1cc2c(cc1OC)C(=O)CC2", "solubility (mole fraction)": 0.0269}

====

# measurement-parameters: in ethanol, 308.15 K

{"structure-smiles": "COc1cc2c(cc1OC)C(=O)CC2", "solubility (mole fraction)": 0.0317}

====

# measurement-parameters: in methyl acetate, 303.15 K

{"structure-smiles": "COc1cc2c(cc1OC)C(=O)CC2", "solubility (mole fraction)": 0.0986}

====

# measurement-parameters: in n-butyl acetate, 308.15 K
readout-name: solubility (mole fraction)

{"structure-smiles": "COc1cc2c(cc1OC)C(=O)CC2", "readout-name": "solubility (mole fraction)", "value-observed": 0.0593}

====

# measurement-parameters: in 2-butanone, 308.15 K
readout-name: solubility (mole fraction)

{"structure-smiles": "COc1cc2c(cc1OC)C(=O)CC2", "readout-name": "solubility (mole fraction)", "value-observed": 0.125}

====

# measurement-parameters: in n-propyl acetate, 283.15 K

{"structure-smiles": "COc1cc2c(cc1OC)C(=O)CC2", "solubility (mole fraction)": 0.034}

====

# measurement-parameters: in methyl acetate, 283.15 K
readout-name: solubility (mole fraction)

{"structure-smiles": "COc1cc2c(cc1OC)C(=O)CC2", "readout-name": "solubility (mole fraction)", "value-observed": 0.0426}
